MEASUREMENT_DESCRIPTION: SPF in vitro / UVA PF from UV transmittance through thin film on PMMA plates
Let's look at some compounds and their measured SPF Change %.
// return numeric value only (unit: %, not printed)

Below, each entry is followed by its recorded SPF Change % result.
Give the measured SPF Change % of COc1ccc(NC2C=C(NCC(=O)O)CC(C)(C)C2)cc1 (centres unmarked) . 61

Give the measured SPF Change % of CCOC(=O)C1CSC2=C(CC(C)(C)C/C2=N\c2ccc(-c3ccccc3)cc2)N1 (centres unmarked) . 35

Give the measured SPF Change % of "CCOC(=O)CNC1=C/C(=N/c2ccc(-c3ccccc3)cc2)CC(C)(C)C1" . 63

Give the measured SPF Change % of COC(=O)C1CSC2=C(CC(C)(C)C/C2=N\c2ccc(OC)cc2)N1 (centres unmarked) . 4

More entries:
Give the measured SPF Change % of CCOC(=O)CNC1=CC(Nc2ccc(OC)cc2)CC(C)(C)C1 (centres unmarked) . 18

Give the measured SPF Change % of "CCOC(=O)CNC1=C/C(=N/c2ccc(/N=N/c3ccc([N+](=O)[O-])cc3)cc2)CC(C)(C)C1" . 7

Give the measured SPF Change % of CCOC(=O)C1CSC2=C(CC(C)(C)C/C2=N\c2ccc(/N=N/c3ccccc3)cc2)N1 (centres unmarked) . 41

Give the measured SPF Change % of "CCOC(=O)CNC1=C/C(=N/c2ccc(/N=N/c3ccccc3)cc2)CC(C)(C)C1" . 81

* * *

MEASUREMENT_DESCRIPTION: SPF in vitro / UVA PF from UV transmittance through thin film on PMMA plates
ASSAY_SETUP: 0.75 mg/cm^2
MEASURED_PARAMETER: SPF in vitro mean
Please state the value as a number alone, without comment.

Below, each entry is followed by its recorded SPF in vitro mean result.
Give the measured SPF in vitro mean of COC(=O)C1CSC2=C(CC(C)(C)C/C2=N\c2ccc(OC)cc2)N1 (centres unmarked) [Formula 43] . 20.84

Give the measured SPF in vitro mean of COc1ccc(NC2C=C(NCC(=O)O)CC(C)(C)C2)cc1 (centres unmarked) [Formula 73] . 32.31

Give the measured SPF in vitro mean of CCOC(=O)CNC1=C/C(=N/c2ccc(/N=N/c3ccc([N+](=O)[O-])cc3)cc2)CC(C)(C)C1 [Formula 35] . 21.53

Give the measured SPF in vitro mean of CCOC(=O)CNC1=C/C(=N/c2ccc(/N=N/c3ccccc3)cc2)CC(C)(C)C1 [Formula 33] . 36.23

More entries:
Give the measured SPF in vitro mean of CCOC(=O)CNC1=CC(Nc2ccc(OC)cc2)CC(C)(C)C1 (centres unmarked) [Formula 72] . 23.61

Give the measured SPF in vitro mean of CCOC(=O)CNC1=C/C(=N/c2ccc(-c3ccccc3)cc2)CC(C)(C)C1 [Formula 31] . 32.75

Give the measured SPF in vitro mean of CCOC(=O)C1CSC2=C(CC(C)(C)C/C2=N\c2ccc(-c3ccccc3)cc2)N1 (centres unmarked) [Formula 19] . 27.12

Give the measured SPF in vitro mean of CCOC(=O)C1CSC2=C(CC(C)(C)C/C2=N\c2ccc(/N=N/c3ccccc3)cc2)N1 (centres unmarked) [Formula 15] . 28.31

* * *

MEASUREMENT_DESCRIPTION: Thermal stability by Thermogravimetric Analysis (TGA)
Type: physicochemical
ASSAY_SETUP: by intersection points of tangents
MEASURED_PARAMETER: T onset (C)
// return numeric value only (unit: C, not printed)

Give the measured T onset of CCOC(=O)CNC1=C/C(=N/c2ccc3c(c2)OCCO3)CC(C)(C)C1 [Formula 56] . 207.6

Give the measured T onset of CCOC(=O)C1CSC2=C(CC(C)(C)CC2Nc2ccccc2)N1 (stereo not drawn) [Formula 77] . 187.4

Give the measured T onset of COC(=O)C(Cc1ccccc1)NC1=C/C(=N/c2ccc(OC)cc2)CC(C)(C)C1 (stereo not drawn) [Formula 68] . 197.2

More entries:
Give the measured T onset of CCOC(=O)CNC1=C/C(=N/c2ccccc2)CC(C)(C)C1 [Formula 46] . 215.2

Give the measured T onset of COC(=O)C(Cc1ccccc1)NC1=C/C(=N/c2ccc(F)cc2)CC(C)(C)C1 (stereo not drawn) [Formula 67] . 190.5

Give the measured T onset of CCOC(=O)CNC1=C/C(=N/c2ccc(OC(F)(F)F)cc2)CC(C)(C)C1 [Formula 53] . 199.3

Give the measured T onset of CCOC(=O)C1CSC2=C(CC(C)(C)C/C2=N\c2ccc(Nc3ccccc3)cc2)N1 (stereo not drawn) [Formula 64] . 187.0

Give the measured T onset of CCOC(=O)CNC1=C/C(=N/c2ccc(N(C)C)cc2)CC(C)(C)C1 [Formula 52] . 199.1

Give the measured T onset of CCOC(=O)CNC1=C/C(=N/c2ccc(Nc3ccccc3)cc2)CC(C)(C)C1 [Formula 47] . 226.0
